# Test system: HL-60
# Assay Details: cell viability (% survival relative to DMSO control); higher = less cytotoxic
# Run Parameters: 0.01 µM; 72 h; co-treatment: AZD3965 100 nM
Please respond with yes (1) when measured cell viability is strictly beneath 90%, and with no (0) in all other cases.

- Compound: "Nc1ccn([C@@H]2O[C@H](CO)[C@@H](O)[C@@H]2O)c(=O)n1 [Cytarabine]"
  Class: "no (0)"
- Compound: "CC(C)C[C@H](NC(=O)[C@@H](O)[C@H](N)Cc1ccccc1)C(=O)O [Ubenimex]"
  Class: "no (0)"
- Compound: "CCOC(=O)N1c2ccc(C(F)(F)F)cc2[C@@H](N(Cc2cc(C(F)(F)F)cc(C(F)(F)F)c2)C(=O)OC)C[C@H]1CC [Torcetrapib]"
  Class: "no (0)"
- Compound: "CC(C)Cc1sc(N)nc1-c1ccc(P(=O)(O)O)o1"
  Class: "no (0)"
- Compound: "CC(/C=C1\\SC(=S)N(CC(=O)O)C1=O)=C\\c1ccccc1 [Epalrestat]"
  Class: "yes (1)"
- Compound: "Sc1ncnc2nc[nH]c12 [6-mercaptopurine]"
  Class: "no (0)"
- Compound: "Cc1ccc(S(=O)(=O)NC2c3ccccc3Oc3ccccc32)cc1 [AH-7614]"
  Class: "no (0)"
- Compound: "O=C1Oc2ccccc2C(=O)C1CC1C(=O)Oc2ccccc2C1=O (stereo unspecified) [Dicumarol]"
  Class: "yes (1)"
